Assign glycan array binding signal (z-score) to each entry below.
measurement.target: GalNAc(a1-3)GalNAc(b1-3)Gal(a1-4)Gal(b1-4)GlcNAc
assay: glycan array binding signal (z-score within array); higher = stronger binding
details: glycan notation: IUPAC condensed, linker removed
About 410 targets per protein were measured; listed, in parts, are those with the strongest signals and a random draw of the rest.
Numbers only.

Before answering, review these 2 worked examples.
BDCA-2 (Homo sapiens), Q8WTT0 (protein) MVPEEEPQDREKGLWWFQLKVWSMAVVSILLLSVCFTVSSVVPHNFMYSKTVKRLSKLREYQQYHPSLTCVMEGKDIEDWSCCPTPWTSFQSSCYFISTGMQSWTKSQKNCSVMGADLVVINTREEQDFIIQNLKRNSSYFLGLSDPGGRRHWQWVDQTPYNENVTFWHSGEPNNLDERCAIINFRSSEEWGWNDIHCHVPQKSICKMKKIYI :: -0.114
AAL (Agrocybe aegerita), Q6WY08 (protein) MQGVNIYNISAGTSVDLAAPVTTGDIVTFFSSALNLNAGAGNPNNTTLNLFAENGAYLLHIAFRLQENVIIFNSRQPDGPWLVEQRVSDVANQFAGIDGKAMVTVFDHGDKYQVVINEKTVIQYTKQISGLTLSLSYNATEETSIFSTVVEAVTYTGLALEHHHHHH :: -0.137

stdin: # glycan array binding signal (z-score) lookup, item VLRB.aGPA.23-GCN4-biotin (Petromyzon marinus) (protein) ACPSQCSCSGTEVNCAGKSLASVPAGIPTTTRVLYLNSNQITKLEPGVFDRLANLRELHLWGNQLVSLPPGVFDNLANLEKLWLNSNQLTSLPAGLFDRLVNLEHLGLCCMKLTELPSGAFDKLTRLKQLGLDQNQLKSIPDGAFARLPSLTHVWLHTNPWDCQCTDILYLSGWVAQHSSIVGEGWPWRHSPDSAKCSGTNTPVRAVTEASTSPSKCP
stdout: -0.076

The origin of these recorded values is the supplement of paper PMC8728848.
